Form field: pIC50 (one value per entry).
Target: human recombinant HDAC 2 (Homo sapiens, UniProt Q92769)
Sequence (Q92769 whole entry): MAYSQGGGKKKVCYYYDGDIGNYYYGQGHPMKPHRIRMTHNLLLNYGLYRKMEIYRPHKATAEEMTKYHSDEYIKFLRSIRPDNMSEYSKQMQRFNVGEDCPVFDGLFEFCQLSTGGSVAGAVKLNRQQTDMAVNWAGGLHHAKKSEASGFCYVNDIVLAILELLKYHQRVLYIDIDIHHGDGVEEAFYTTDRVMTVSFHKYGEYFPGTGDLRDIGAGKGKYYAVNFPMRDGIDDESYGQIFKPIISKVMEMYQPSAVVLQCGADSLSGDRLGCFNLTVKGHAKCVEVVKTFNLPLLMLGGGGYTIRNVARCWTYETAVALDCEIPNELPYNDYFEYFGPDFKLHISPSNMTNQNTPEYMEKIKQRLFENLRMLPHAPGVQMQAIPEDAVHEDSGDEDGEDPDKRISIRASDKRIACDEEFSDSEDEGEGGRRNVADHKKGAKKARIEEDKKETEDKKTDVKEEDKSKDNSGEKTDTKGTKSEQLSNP
Experiment: HDAC inhibition assay (Fluor de Lys), HDAC2
Settings: inhibitor-protein incubation 2 hours, reaction 1 h 30 min, 37° C.
pIC50: −log10 of the molar value. Where a name gives a salt, the structure may show the parent alone.

Solved entries:
compound: O=C(O)C(CCCc1cccc2ccccc12)CCc1ccc(-c2cccnc2)cc1 (centres unmarked)
pIC50: 4.00 to 5.00

compound: CCc1ccc(CCC(CCCc2ccc(S(=O)(=O)Nc3ccccc3)cc2)C(=O)O)cc1 (centres unmarked)
pIC50: 4.00 to 5.00

compound: CCc1ccc(CCC(CCCc2cccc3ccccc23)C(=O)O)cc1 (centres unmarked)
pIC50: 3.00 to 4.00

Query string: Please give the measured pIC50 for this compound: O=C(O)C(CCCc1ccccc1)CCc1ccc(OCc2ccncc2)cc1 (centres unmarked)
Result string: 3.00 to 4.00

Query string: Entry COc1ccc(NS(=O)(=O)c2cccc(CCCC(CCc3ccccc3)C(=O)O)c2)cc1OC (centres unmarked) please
Result string: 3.00 to 4.00

Query string: Ok, now O=C(O)C(CCCc1ccccc1)OCc1ccccc1 (centres unmarked)
Result string: 3.00 to 4.00

Query string: Now the compound CN(C)c1ccc(C(=O)Nc2cccc(CCCC(CCc3ccccc3)C(=O)O)c2)cc1 (centres unmarked) [Example 24, hydrochloride]
Result string: 4.00 to 5.00

Query string: Then this compound: O=C(O)C(CCCc1ccccc1)CCc1ccc(-c2cccnc2)cc1 (centres unmarked)
Result string: 4.00 to 5.00

Query string: One more compound: COc1ccc(Oc2ccc(CCC(CCCc3ccccc3)C(=O)O)cc2)cc1 (centres unmarked)
Result string: 4.00 to 5.00

Query string: Now the same for O=C(O)C(CCCCc1ccccc1)CCc1ccccc1 (centres unmarked)
Result string: 4.00 to 5.00

Query string: Same question, CCCC(CCc1ccccc1)C(=O)O (centres unmarked) this time
Result string: 3.00 to 4.00
